System: SW-620
experimentalDetails: NCI tumour cell line growth inhibition, 48 h
The source made the active and inactive calls. Rule as the data show it: active = GI50 up to about 1.1 µM and inactive = higher.
The reply should name one outcome from Y for active, N for inactive

Example results:
[
  {
    "molecule": "CCCCI(O)OS(=O)(=O)c1ccc(C)cc1",
    "labelClass": "N"
  },
  {
    "molecule": "CC(C)[Si](OC12CCC(CC1O)CC2CO)(C(C)C)C(C)C (configuration not stated)",
    "labelClass": "N"
  },
  {
    "molecule": "CN(C)CCNc1ccc2nnn3c4ccc(Cl)cc4c(=O)c1c23",
    "labelClass": "Y"
  },
  {
    "molecule": "OCc1ccn2c1[C@@H](O)CC2",
    "labelClass": "N"
  },
  {
    "molecule": "Cc1nc2ccccc2c(=O)n1/N=C(\\N=N\\c1cc(Cl)ccc1Cl)c1ccc(N(C)C)cc1",
    "labelClass": "N"
  },
  {
    "molecule": "NC(=S)N/N=C1\\C(=O)Nc2c(Cl)cc(Cl)cc21",
    "labelClass": "N"
  }
]

How did this test come out for `CCOC(=O)c1c(N2CCCC2)nsc1Nc1ccccc1` ?
N

How did this test come out for C/C=C\C(CC(=O)NCCc1cn(C(=O)OCc2ccccc2)c2ccccc12)CC(=O)OC (configuration not stated) ?
N

How did this test come out for `Nc1c(S(=O)(=O)O)cc(Nc2cccc(S(=O)(=O)/C=C/S(=O)(=O)O)c2)c2c1C(=O)c1ccccc1C2=O` ?
N

How did this test come out for `CCc1cccc(C)c1NC(=O)C(=O)Cc1nc2ccccc2s1` ?
Y

How did this test come out for O=C(CC1(O)C(=O)Nc2ccccc21)c1cccc(O)c1 (configuration not stated) ?
N

How did this test come out for O=C(Nc1ccn(C2CCC(CO)O2)c(=O)n1)c1ccccc1 (configuration not stated) ?
N

How did this test come out for `O=C(O)C1(Nc2ccc(Cl)cc2)CCCC1` ?
N

How did this test come out for `CCCOc1ccc(/C=C\c2cc(OC)c(OC)c(OC)c2)cc1` ?
N
